# System: 935938-334-R-J1-PDC spheroids with HUVEC/MSC, viability;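 further: compound exposure lasted seven days before viability was read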
# MEASUREMENT NOTES: Anticancer human tumor 935938-334-R-J1-PDC patient-derived small intestine adenocarcinoma cell line growth inhibition [PI3K]
# PROTOCOL CONDITIONS: second compound 0.01 µM; first compound 0.1 µM; hits give low values
With a cut-off of 80%, any viability, T/C strictly below it is called Y; any viability, T/C meeting it or above is called N.

molecule="CC1(C)CCC(Nc2ncc(C(F)(F)F)c(-c3c[nH]c4c(P(C)(C)=O)c(C#N)ccc34)n2)CN1 (stereo unspecified) + CC(Nc1ccc2c(c1)OCCn1cc(N3C(=O)OCC3C(F)F)nc1-2)C(N)=O" cat=Y
molecule="CC1(C)CCC(Nc2ncc(C(F)(F)F)c(-c3c[nH]c4c(P(C)(C)=O)c(C#N)ccc34)n2)CN1 (stereo unspecified) + COc1c(OCCCN2CCOCC2)ccc2c3n(c(=NC(=O)c4cnc(N)nc4)nc12)CCN3" cat=Y
molecule="Cn1ncnc1[C@H]1c2n[nH]c(=O)c3cc(F)cc(c23)N[C@@H]1c1ccc(F)cc1 + COc1c(OCCCN2CCOCC2)ccc2c3n(c(=NC(=O)c4cnc(N)nc4)nc12)CCN3" cat=Y
molecule="CCCS(=O)(=O)Nc1ccc(F)c(C(=O)c2c[nH]c3ncc(-c4ccc(Cl)cc4)cc23)c1F + COc1c(OCCCN2CCOCC2)ccc2c3n(c(=NC(=O)c4cnc(N)nc4)nc12)CCN3" cat=N
molecule="CC(C)NCC(C(=O)N1CCN(c2ncnc3c2C(C)CC3O)CC1)c1ccc(Cl)cc1 (stereo unspecified) + CC(Nc1ccc2c(c1)OCCn1cc(N3C(=O)OCC3C(F)F)nc1-2)C(N)=O" cat=Y
molecule="CC1(C)CCC(CN2CCN(c3ccc(C(=O)NS(=O)(=O)c4ccc(NCC5CCOCC5)c([N+](=O)[O-])c4)c(Oc4cnc5[nH]ccc5c4)c3)CC2)=C(c2ccc(Cl)cc2)C1 + CC(Nc1ccc2c(c1)OCCn1cc(N3C(=O)OCC3C(F)F)nc1-2)C(N)=O" cat=N

Ask: # strict comparison: is reported viability, T/C < 80%? input = CC(C)n1nc(-c2ccc3oc(N)nc3c2)c2c(N)ncnc21 + CC(Nc1ccc2c(c1)OCCn1cc(N3C(=O)OCC3C(F)F)nc1-2)C(N)=O
Reply: Y

Ask: Is viability, T/C strictly under 80% for the entry C[C@@H](NC(=O)c1ncnc(N)c1Cl)c1ncc(C(=O)Nc2cc(C(F)(F)F)c(Cl)cn2)s1 + CC(Nc1ccc2c(c1)OCCn1cc(N3C(=O)OCC3C(F)F)nc1-2)C(N)=O ?
Reply: N

Ask: Quick check: viability, T/C of CNC(=O)c1ccc(N2C(=S)N(c3ccc(C#N)c(C(F)(F)F)c3)C(=O)C2(C)C)cc1F + COc1c(OCCCN2CCOCC2)ccc2c3n(c(=NC(=O)c4cnc(N)nc4)nc12)CCN3 under 80%?
Reply: N

Ask: Regarding Cn1ncnc1[C@H]1c2n[nH]c(=O)c3cc(F)cc(c23)N[C@@H]1c1ccc(F)cc1 + CC(Nc1ccc2c(c1)OCCn1cc(N3C(=O)OCC3C(F)F)nc1-2)C(N)=O , kindly confirm whether its viability, T/C is beneath 80%.
Reply: N
